This section presents molecules with their documented IC50 values.
- SYSTEM_UNDER_TEST: functional uptake of serotonin (5-HT) into synaptosomes prepared from rat whole brain (Rattus norvegicus, UniProt P31652)
- Construct: into synaptosomes prepared from rat whole brain, hypothalamus, or corpora striata, respectively; from tissue; host or cells: rat whole brain synaptosomes
- Sequence (P31652 whole entry): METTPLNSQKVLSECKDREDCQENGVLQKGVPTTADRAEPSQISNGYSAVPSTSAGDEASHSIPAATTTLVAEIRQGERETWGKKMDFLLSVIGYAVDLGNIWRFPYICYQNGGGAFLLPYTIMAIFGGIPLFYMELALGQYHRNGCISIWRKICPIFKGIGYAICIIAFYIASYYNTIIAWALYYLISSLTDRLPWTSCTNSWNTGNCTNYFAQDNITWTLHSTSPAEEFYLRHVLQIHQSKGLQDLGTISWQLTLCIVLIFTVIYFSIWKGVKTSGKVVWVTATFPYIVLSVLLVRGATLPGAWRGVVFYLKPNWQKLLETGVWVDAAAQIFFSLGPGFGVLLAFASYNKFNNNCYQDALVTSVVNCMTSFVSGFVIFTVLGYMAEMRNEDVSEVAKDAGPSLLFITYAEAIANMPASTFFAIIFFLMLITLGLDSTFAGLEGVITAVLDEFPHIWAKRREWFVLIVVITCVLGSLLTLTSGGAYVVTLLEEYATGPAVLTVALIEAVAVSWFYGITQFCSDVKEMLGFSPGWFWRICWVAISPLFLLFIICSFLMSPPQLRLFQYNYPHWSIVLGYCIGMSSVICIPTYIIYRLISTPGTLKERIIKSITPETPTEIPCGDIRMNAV
- TEST_DESCRIPTION: Functional uptake of serotonin (5-HT) into synaptosomes
- Assay type: biochemical
- CONDITION_LABEL: rat whole brain synaptosomes; 10 concentrations in duplicate; read-out: IC50 Values (nM) for 1-OH Metabolites of DDMS in Functional Uptake Assays: 5-HT
VALUE_KIND: IC50 (nM)

MOLECULE: C[C@@H](CO)C[C@H](N)C1(c2ccc(Cl)cc2)CCC1 [(2R,4S)-1-OH-DDMS]
VALUE_OBSERVED: 2000

MOLECULE: C[C@H](CO)C[C@H](N)C1(c2ccc(Cl)cc2)CCC1 [(2S,4S)-1-OH-DDMS]
VALUE_OBSERVED: 1200

MOLECULE: C[C@H](CO)C[C@@H](N)C1(c2ccc(Cl)cc2)CCC1 [(2S,4R)-1-OH-DDMS]
VALUE_OBSERVED: 65

MOLECULE: C[C@@H](CO)C[C@@H](N)C1(c2ccc(Cl)cc2)CCC1 [(2R,4R)-1-OH-DDMS]
VALUE_OBSERVED: 34

###

This section presents molecules with their documented IC50 values.
- SYSTEM_UNDER_TEST: functional uptake of dopamine (DA) into synaptosomes prepared from rat corpora striata (Rattus norvegicus, UniProt P23977)
- Construct: into synaptosomes prepared from rat whole brain, hypothalamus, or corpora striata, respectively; from tissue; host or cells: rat corpora striata synaptosomes
- Sequence (P23977 whole entry): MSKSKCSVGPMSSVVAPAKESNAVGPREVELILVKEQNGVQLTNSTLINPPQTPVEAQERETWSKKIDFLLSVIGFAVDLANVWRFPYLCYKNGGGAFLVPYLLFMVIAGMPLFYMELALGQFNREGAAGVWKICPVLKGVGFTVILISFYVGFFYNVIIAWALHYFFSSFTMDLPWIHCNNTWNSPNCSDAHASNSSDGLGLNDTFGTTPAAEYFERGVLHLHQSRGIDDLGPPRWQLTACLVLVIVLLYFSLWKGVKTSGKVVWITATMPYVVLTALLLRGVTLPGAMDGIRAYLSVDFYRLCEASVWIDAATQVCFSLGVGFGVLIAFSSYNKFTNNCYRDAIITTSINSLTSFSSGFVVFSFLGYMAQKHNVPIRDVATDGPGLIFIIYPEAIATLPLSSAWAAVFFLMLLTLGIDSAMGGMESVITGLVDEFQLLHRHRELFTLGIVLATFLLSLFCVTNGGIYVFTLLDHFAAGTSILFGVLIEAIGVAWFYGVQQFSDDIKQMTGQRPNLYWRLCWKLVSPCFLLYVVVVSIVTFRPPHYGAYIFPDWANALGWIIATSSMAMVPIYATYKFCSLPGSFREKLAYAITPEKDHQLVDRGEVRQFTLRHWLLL
- TEST_DESCRIPTION: Functional uptake of dopamine (DA) into synaptosomes
- Type: biochemical
- CONDITION_LABEL: 10 concentrations in duplicate, read-out: IC50 Values (nM) for 1-OH Metabolites of DMS in Functional Uptake Assays: DA

COMPOUND: CN[C@@H](C[C@@H](C)CO)C1(c2ccc(Cl)cc2)CCC1
UNIT_SPEC: nM
IC50: 2500
//
COMPOUND: CN[C@H](C[C@@H](C)CO)C1(c2ccc(Cl)cc2)CCC1
UNIT_SPEC: nM
IC50: 19
//
COMPOUND: CN[C@H](C[C@H](C)CO)C1(c2ccc(Cl)cc2)CCC1
UNIT_SPEC: nM
IC50: 37
//
COMPOUND: CN[C@@H](C[C@H](C)CO)C1(c2ccc(Cl)cc2)CCC1
UNIT_SPEC: nM
IC50: 430

###

- SYSTEM_UNDER_TEST: functional uptake of serotonin (5-HT) into synaptosomes prepared from rat whole brain (Rattus norvegicus)
- Construct: into synaptosomes prepared from rat whole brain, hypothalamus, or corpora striata, respectively; from tissue; host or cells: rat whole brain synaptosomes
- TEST_DESCRIPTION: Functional uptake of serotonin (5-HT) into synaptosomes
- Type: biochemical
- CONDITION_LABEL: rat whole brain synaptosomes; 10 concentrations in duplicate; read-out: IC50 Values (nM) for 1-OH Metabolites of DMS in Functional Uptake Assays: 5-HT
This section presents compounds with their documented IC50 values.

COMPOUND: CN[C@H](C[C@H](C)CO)C1(c2ccc(Cl)cc2)CCC1
IC50, nM: 160
--
COMPOUND: CN[C@H](C[C@@H](C)CO)C1(c2ccc(Cl)cc2)CCC1
IC50, nM: 12
